# Experimental Target: Human MTAP (Homo sapiens)
# Construct: six-histidine tag (His6) (N); made in house; host or cells: E. coli BL21 DE3
# Test Method Notes: MTAP substrate assay, coupled spectrophotometric (adenine, xanthine oxidase)
# Format: biochemical
# Details: 10 min; compound 50 uM, 2 nM MTAP, relative to MTA at 50 uM; read-out: MT-A—50: initial velocity as a percentage of the initial velocity with MTA as substrate
Observable: activity at 50 µM

INPUT: Output activity at 50 µM of CC(C)n1c(O)nnc1SC[C@H]1O[C@@H](n2cnc3c(N)ncnc32)[C@H](O)[C@@H]1O [2(G)(65)]
OUTPUT: 4%

INPUT: Output activity at 50 µM of CCCc1cc(O)nc(SC[C@H]2O[C@@H](n3cnc4c(N)ncnc43)[C@H](O)[C@@H]2O)n1 [2(G)(162)]
OUTPUT: 39.5%

INPUT: Output activity at 50 µM of Cn1c(O)nnc1SC[C@H]1O[C@@H](n2cnc3c(N)ncnc32)[C@H](O)[C@@H]1O [2(G)(31)]
OUTPUT: 50%

INPUT: Output activity at 50 µM of Nc1ncnc2c1ncn2[C@@H]1O[C@H](CSc2cccc(O)c2)[C@@H](O)[C@H]1O [2(G)(101)]
OUTPUT: 38%

INPUT: Output activity at 50 µM of COC(=O)c1ccc(SC[C@H]2O[C@@H](n3cnc4c(N)ncnc43)[C@H](O)[C@@H]2O)cc1 [2(G)(20)]
OUTPUT: 5%

INPUT: Output activity at 50 µM of CCCCCCSC[C@H]1O[C@@H](n2cnc3c(N)ncnc32)[C@H](O)[C@@H]1O [2(G)(126)]
OUTPUT: 67.5%

INPUT: Output activity at 50 µM of Nc1ncnc2c1ncn2[C@@H]1O[C@H](CSc2cccc(C(F)(F)F)c2)[C@@H](O)[C@H]1O [2(G)(99)]
OUTPUT: 18%

INPUT: Output activity at 50 µM of Nc1ncnc2c1ncn2[C@@H]1O[C@H](CSCc2ccc(Cl)cc2Cl)[C@@H](O)[C@H]1O [2(G)(76)]
OUTPUT: 11%

INPUT: Output activity at 50 µM of Nc1ncnc2c1ncn2[C@@H]1O[C@H](CSCc2cccc(C(F)(F)F)c2)[C@@H](O)[C@H]1O [2(G)(74)]
OUTPUT: 22%

INPUT: Output activity at 50 µM of Nc1ncnc2c1ncn2[C@@H]1O[C@H](CSc2nc3cc(Cl)ccc3s2)[C@@H](O)[C@H]1O [2(G)(11)]
OUTPUT: 25%

INPUT: Output activity at 50 µM of NC(=O)c1cccnc1SC[C@H]1O[C@@H](n2cnc3c(N)ncnc32)[C@H](O)[C@@H]1O [2(G)(60)]
OUTPUT: 8%

INPUT: Output activity at 50 µM of Nc1ncnc2c1ncn2[C@@H]1O[C@H](CSCc2ccc(Cl)c(Cl)c2)[C@@H](O)[C@H]1O [2(G)(145)]
OUTPUT: 16%

INPUT: Output activity at 50 µM of Cc1csc(SC[C@H]2O[C@@H](n3cnc4c(N)ncnc43)[C@H](O)[C@@H]2O)n1 [2(G)(79)]
OUTPUT: 45%

INPUT: Output activity at 50 µM of Nc1ncnc2c1ncn2[C@@H]1O[C@H](CSc2ccc(C(=O)O)cc2)[C@@H](O)[C@H]1O [2(G)(95)]
OUTPUT: 7%

INPUT: Output activity at 50 µM of COC(=O)CCSC[C@H]1O[C@@H](n2cnc3c(N)ncnc32)[C@H](O)[C@@H]1O [2(G)(92)]
OUTPUT: 36%

====

Catalogue of compounds with associated MT-A—10: initial velocity as a percentage of the initial velocity with MTA as substrate
# Experimental Target: Human MTAP (Homo sapiens, UniProt Q13126)
# Construct: six-histidine tag (His6) (N); made in house; host or cells: E. coli BL21 DE3
# Test Method Notes: MTAP substrate assay, coupled spectrophotometric (adenine, xanthine oxidase)
# Type: biochemical
# Details: compound 10 uM, 2 nM MTAP, relative to MTA at 10 uM
Note: unit % is implicit; provide only the numeric part.

The cases that follow already have their MT-A—10: initial velocity as a percentage of the initial velocity with MTA as substrate on record.
Cc1occc1SC[C@H]1O[C@@H](n2cnc3c(N)ncnc32)[C@H](O)[C@@H]1O [2(G)(37)] ... 10
CC(C)SC[C@H]1O[C@@H](n2cnc3c(N)ncnc32)[C@H](O)[C@@H]1O [2(G)(45)] ... 53
NC(=O)c1cccnc1SC[C@H]1O[C@@H](n2cnc3c(N)ncnc32)[C@H](O)[C@@H]1O [2(G)(60)] ... 4

INPUT: Output MT-A—10: initial velocity as a percentage of the initial velocity with MTA as substrate of COC(=O)c1ccc(SC[C@H]2O[C@@H](n3cnc4c(N)ncnc43)[C@H](O)[C@@H]2O)cc1 [2(G)(20)]
OUTPUT: 7

INPUT: Output MT-A—10: initial velocity as a percentage of the initial velocity with MTA as substrate of Nc1ncnc2c1ncn2[C@@H]1O[C@H](CSCc2ccccc2F)[C@@H](O)[C@H]1O [2(G)(127)]
OUTPUT: 56

====

# Experimental Target: Human MTAP (Homo sapiens)
# Construct: six-histidine tag (His6) (N); made in house; host or cells: E. coli BL21 DE3
# Test Method Notes: MTAP substrate assay, coupled spectrophotometric (adenine, xanthine oxidase)
# Type: biochemical
# Details: 10 min; compound 50 uM, 2 nM MTAP, relative to MTA at 50 uM; read-out: MT-A—50: initial velocity as a percentage of the initial velocity with MTA as substrate
Please mark yes if the recorded activity at 50 µM is equal to or greater than 7%, and no if it falls below.

Some solved entries appear below for comparison.
CC(C)(C)OC(=O)NCCSC[C@H]1O[C@@H](n2cnc3c(N)ncnc32)[C@H](O)[C@@H]1O [2(G)(39)] ... yes
Nc1ncnc2c1ncn2[C@@H]1O[C@H](CSc2nc3cnccc3[nH]2)[C@@H](O)[C@H]1O [2(G)(47)] ... yes
C#CCSc1nnc(SC[C@H]2O[C@@H](n3cnc4c(N)ncnc43)[C@H](O)[C@@H]2O)s1 [2(G)(30)] ... yes
Cc1cc(C)cc(SC[C@H]2O[C@@H](n3cnc4c(N)ncnc43)[C@H](O)[C@@H]2O)c1 [2(G)(148)] ... yes
Nc1ncnc2c1ncn2[C@@H]1O[C@H](CSc2cc(Cl)cc(Cl)c2)[C@@H](O)[C@H]1O [2(G)(131)] ... yes

INPUT: Say whether Nc1ncnc2c1ncn2[C@@H]1O[C@H](CSc2cccc3ccccc23)[C@@H](O)[C@H]1O [2(G)(18)] shows activity at 50 µM of 7% or more.
OUTPUT: no

INPUT: Say whether Nc1ncnc2c1ncn2[C@@H]1O[C@H](CSCCCO)[C@@H](O)[C@H]1O [2(G)(75)] shows activity at 50 µM of 7% or more.
OUTPUT: yes

INPUT: Say whether Nc1ncnc2c1ncn2[C@@H]1O[C@H](CSc2ccccc2Br)[C@@H](O)[C@H]1O [2(G)(70)] shows activity at 50 µM of 7% or more.
OUTPUT: no

INPUT: Say whether Cc1ccc(SC[C@H]2O[C@@H](n3cnc4c(N)ncnc43)[C@H](O)[C@@H]2O)c(C)c1 [2(G)(149)] shows activity at 50 µM of 7% or more.
OUTPUT: no

====

# Experimental Target: Human MTAP (Homo sapiens)
# Construct: six-histidine tag (His6) (N); made in house; host or cells: E. coli BL21 DE3
# Sequence (Q13126 1-283): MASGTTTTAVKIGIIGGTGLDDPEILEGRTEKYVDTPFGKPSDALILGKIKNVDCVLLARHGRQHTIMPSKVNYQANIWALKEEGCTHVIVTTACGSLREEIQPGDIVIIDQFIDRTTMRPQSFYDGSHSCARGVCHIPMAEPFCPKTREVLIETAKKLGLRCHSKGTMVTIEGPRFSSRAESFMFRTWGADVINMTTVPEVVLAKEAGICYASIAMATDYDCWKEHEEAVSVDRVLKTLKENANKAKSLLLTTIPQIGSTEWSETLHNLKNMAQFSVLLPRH
# Test Method Notes: MTAP substrate assay, coupled spectrophotometric (adenine, xanthine oxidase)
# Format: biochemical
# Details: 10 min; compound 50 uM, 2 nM MTAP, relative to MTA at 50 uM; read-out: MT-A—50: initial velocity as a percentage of the initial velocity with MTA as substrate
Catalogue of molecules with associated activity at 50 µM
Note: unit % is implicit; provide only the numeric part.

The cases that follow already have their activity at 50 µM on record.
COc1ccc(CSC[C@H]2O[C@@H](n3cnc4c(N)ncnc43)[C@H](O)[C@@H]2O)c(OC)c1 [2(G)(83)] ... 8
Nc1ncnc2c1ncn2[C@@H]1O[C@H](CSc2nccnc2CCc2ccccc2)[C@@H](O)[C@H]1O [2(G)(94)] ... 5
Nc1ncnc2c1ncn2[C@@H]1O[C@H](CSc2ccc(F)cc2)[C@@H](O)[C@H]1O [2(G)(23)] ... 31
N#Cc1cccnc1SC[C@H]1O[C@@H](n2cnc3c(N)ncnc32)[C@H](O)[C@@H]1O [2(G)(89)] ... 5
Nc1cccnc1SC[C@H]1O[C@@H](n2cnc3c(N)ncnc32)[C@H](O)[C@@H]1O [2(G)(59)] ... 47
COC(=O)c1cnc(SC[C@H]2O[C@@H](n3cnc4c(N)ncnc43)[C@H](O)[C@@H]2O)n1C [2(G)(164)] ... 29
Cc1cc(N)c(SC[C@H]2O[C@@H](n3cnc4c(N)ncnc43)[C@H](O)[C@@H]2O)cc1C [2(G)(84)] ... 5
Nc1ncnc2c1ncn2[C@@H]1O[C@H](CSc2ccc(Cl)cc2Cl)[C@@H](O)[C@H]1O [2(G)(130)] ... 4.5

INPUT: Output activity at 50 µM of Cn1c(SC[C@H]2O[C@@H](n3cnc4c(N)ncnc43)[C@H](O)[C@@H]2O)nc2ccccc21 [2(G)(113)]
OUTPUT: 43
